Origin of measurements: ChEMBL document CHEMBL3507680

Procedure Summary: Human HepG2 cell viability assay in 384 well format
Assay type: toxicity, cell-based
Parameters: dose 125 nL, time 70.5 hour; concentration not given beside the values
Experimental Setup: HepG2 cells, read-out: Inhibition
Quantity: cytotoxicity at 70.5 h (%)

Cc1oc(C(=O)O)cc1S(=O)(=O)Nc1cc(Br)ccc1F; -7.4
O=C(c1ccco1)N1CCCC1C1CCN(Cc2ccccc2)CC1 (configuration not stated); -5.08
O=C(Cn1cccnc1=O)NCCc1ccc2c(c1)OCCO2; 5.28
CCn1cc(CNC2CC(=O)N(CCc3cccc(Cl)c3)C2)cn1 (configuration not stated); -3.19
Cc1nnc2n1CC(CNc1cnc3ccccc3n1)CC2 (configuration not stated); -9.52
O=C(c1cnc2ccc(Cl)cc2c1NCc1ccco1)N1CCCCC1; 23.3
CNS(=O)(=O)CC1CCCN1c1ccc(Br)cn1 (configuration not stated); -0.632
Cc1nc(C)n(CC2CN(Cc3cccnc3)CCO2)n1 (configuration not stated); -3.76
Cc1nn(C)c(C)c1CC(=O)N1CCCN(c2cccnn2)CC1; 5.97
O=C(NCc1ccco1)[C@@]12CCO[C@@H]1CCN(CC1CCOCC1)C2; -1.64
Cc1ccc(C(=O)N2CCCCC2CN(C)C)cc1 (configuration not stated); 4.31
CCC1CCCCCN1C(=O)c1cc(C#N)c(SC)[nH]c1=O (configuration not stated); 24.7
Cc1ncsc1-c1ccn(CC(=O)Nc2cnn(C)n2)n1; 45.6
Cc1cc(C)cc(CCC(=O)N(C)CCc2cn[nH]c2)c1; -14.2
CCCN1C[C@H]2CC[C@@H]1CN(Cc1ccc(-n3cccn3)cc1)C2; 23.7
Cc1nccc([C@@H]2C[C@H]3CN(S(=O)(=O)c4ccccc4)C[C@H]3O2)n1; -2.27
COc1ccc(CNC(=O)N2CCN(C)[C@@H]3CS(=O)(=O)C[C@@H]32)cc1; -1.34
COCCC(=O)N1CCOCC(Cc2ccc3c(ccn3C)c2)C1 (configuration not stated); -6.26
Cc1csc2ncnc(N3CCCC(Cn4cc(C(C)(C)O)nn4)C3)c12 (configuration not stated); -6.36
CCc1nc(C2CCCN2CCc2ccccn2)no1 (configuration not stated); 24.9
O=S(=O)(Cc1ccc(F)cc1)N1CCN(CC(O)C2CC2)CC1 (configuration not stated); -1.75
CC(C)CN1CCCC1c1ccc(C(=O)Nc2ccc3[nH]nnc3c2)s1 (configuration not stated); -0.75
COc1ccc2nnc(CCC(=O)Nc3nc(C)c(C)s3)n2n1; -9.75
CCS(=O)(=O)N1CC[C@H]2O[C@H](c3nc(C)no3)CC[C@H]21; -14.9
CNc1cc(C(=O)N2CCOC(C(=O)NC3CCCC3)C2)ccn1 (configuration not stated); -2.84
CN(CCNC(=O)c1ccnc(-n2ccnc2)c1)C1CC1; -1.87
Cc1nsc(N2CCN(Cc3cccc(F)c3)CC2)n1; 0.252
O=S(=O)(c1ccc(F)c(F)c1)N1CCCC(c2nccs2)C1 (configuration not stated); 1.6
O=C(CCN1CCCN(c2nccs2)CC1)NCC1CCCCC1; -8.1
O=C(CC1CN(Cc2ccccc2)CCO1)Nc1ccsc1 (configuration not stated); 8.64
Cc1cc(CN2C[C@@H](C)[C@@]3(CCN(C)C3=O)C2)oc1C; -5.99
CC(C)N1CC(C(=O)NCCc2csc(-c3ccncc3)n2)CC1=O (configuration not stated); 34.8
CCCn1cc(C(=O)NCCc2ccncc2)c(C)n1; -6.81
CC(=O)N1CCCC1c1cccc(Oc2ccccc2F)n1 (configuration not stated); -4.13
COCC(=O)N1CCC(C(=O)Nc2ccc(C(C)=O)cc2)CC1; -7.91
OC1CCN(C2CCN(Cc3cnc(-c4cccs4)nc3)CC2)CC1; 12.5
Cc1ncsc1CCC(=O)N1CCN(CCn2cncn2)CC1; -10.7
O=C1CC2(CCCNC2)C(=O)N1Cc1cccc(Cl)c1 (configuration not stated); 29.4
N#Cc1ccccc1C(=O)N1C[C@@H](CN2CCCCC2)[C@@H](CO)C1; -5.21
CN(C)C(=O)c1cccc(CN2CCOC(Cn3cccn3)C2)c1 (configuration not stated); -12.9
COc1ccc(Cl)cc1-n1c(COC(C)C)n[nH]c1=O; -9.9
Cc1nccc(-c2ccccc2)c1C(=O)N1CCC2(CC(=O)NC2=O)C1 (configuration not stated); -0.158
CCc1nc(CNc2ccc(C(=O)N3CCSCC3)cc2C)no1; -6.1
O=C(c1nccc2ccccc12)N1CCCCC1Cn1cccn1 (configuration not stated); -5.86
CNC(=O)[C@H]1C[C@@H]2CN(Cc3csc(C)n3)C[C@@H]2N1S(C)(=O)=O; 27.8
OCCNc1cc(N2CCC(n3cc(C4CCCC4)nn3)CC2)ncn1; -10.7
CC(C)(CCS(C)(=O)=O)CNC(=O)NC1CCCCC1(C)C (configuration not stated); 28

* * *

Procedure Summary: Human HepG2 cell viability assay in 384 well format
Assay type: toxicity, cell-based
Parameters: dose 125 nL, time 70.5 hour; concentration not given beside the values
Experimental Setup: HepG2 cells, read-out: Inhibition
Quantity: cytotoxicity at 70.5 h (%)

CCN(CCn1cccn1)Cc1nc(-c2ccccc2F)oc1C; -7.43
COCC[C@]1(O)CCN(C2CCN(C(=O)C3CCC3)CC2)C[C@H]1C; -9.1
CCC(=O)NC(c1cccnc1)c1cc(C)ccc1C (stereo not drawn); -12.3
Cc1[nH]ncc1CCCNC(=O)N1CCCC(c2nncn2C)C1 (stereo not drawn); -1.78
CC[C@]12CN3C[C@](CC)(CN(C1)C3c1[nH]c(=O)[nH]c(=O)c1C)C2=O (stereo partly drawn); 19.3
O=C(CCc1cc2n(n1)CCCNC2)N1CCSCC1; -9.8
CNc1nc(C(=O)N2C[C@@H]3CCN(C)[C@@H]3C2)cs1; -3.23
Cc1ccc(Br)cc1S(=O)(=O)NCCc1nnc[nH]1; 11.5
Cn1nc(Cn2ccnc2)c2c1CN(C(=O)c1ccoc1)C2; -9.72
O=C(NCc1ccco1)[C@H]1COC[C@H]2CN(Cc3ccccn3)C[C@H]21; -8.72
Cc1cc(C)nc(Nc2cc(C)nc(C3CCN(C(C)C)C3)n2)n1 (stereo not drawn); -5.15
Cc1n[nH]c(C)c1-c1cc(-c2cc[nH]c2)nc(N)c1C#N; -12.3
Cn1cc(C(NCc2ccc(F)cc2)c2cccc(F)c2)cn1 (stereo not drawn); -13.5
O=C(Cc1ccsc1)N1CCC2(CCCN(CC3CCOCC3)C2)C1 (stereo not drawn); 1.53
CC(C)CN1CCC(NC(=O)c2ccc(F)cc2F)CC1; 0.0411
OC(CN(Cc1ccccc1)Cc1ccccn1)c1cccs1 (stereo not drawn); -11
Cc1c(CN2CC[C@@H](N3CCC(O)CC3)[C@H](O)C2)[nH]c2ccc(Cl)cc12; -0.941
Cc1cc(CN2CCC(CNS(=O)(=O)c3ccccc3F)CC2)c(C)o1; 37.7
CC(=O)N1CCc2c(nc(N(C)C)nc2NCc2cccs2)C1; -4.81
O=C1CN(c2ccc(CNC(=O)NCCO)cc2)CCN1; -5.73
NC(=O)C1CCCN(Cc2ccc(C(=O)Nc3cnns3)cc2)C1 (stereo not drawn); 5.24
Cc1nc(C)n(CC2CN(CC(=O)Nc3nccs3)CCO2)n1 (stereo not drawn); -3.11
COc1cccc2[nH]c(C(=O)N3CCNCC3C(N)=O)cc12 (stereo not drawn); 10.8

* * *

Below, each entry is listed alongside its reported cytotoxicity at 70.5 h.
Procedure Summary: Human HepG2 cell viability assay in 384 well format
Assay type: toxicity, cell-based
Set-up: dose 125 nL, time 70.5 hour; concentration not given beside the values
Experimental Setup: HepG2 cells, read-out: Inhibition
Quantity: cytotoxicity at 70.5 h (%)

O=C1C[C@@H]2[C@H](CCN2Cc2ccccn2)N1Cc1ccncc1; -4.28
CCN(c1ccsc1C(=O)N1CCCCC1)S(=O)(=O)c1ccccc1; -11.9
O=C(Cc1cccc(Cl)c1)N[C@@H]1CCNC[C@H]1O; -3.16
N[C@@H]1c2ccccc2C2(CCN(C(=O)c3cncc(Cl)c3)CC2)[C@H]1O; 19
COc1cccc(C2CCN(c3ccc4cc[nH]c4n3)C2)c1OC (stereo unspecified); 1.26
COCC(=O)N1Cc2c(-c3cccc(C)c3)nc(N)nc2C1C (stereo unspecified); -9.82

* * *

Procedure Summary: Human HepG2 cell viability assay in 384 well format
Assay type: toxicity, cell-based
Parameters: dose 125 nL, time 70.5 hour; concentration not given beside the values
Experimental Setup: HepG2 cells, read-out: Inhibition
Quantity: cytotoxicity at 70.5 h (%)

Cc1cc(C)nc(Nc2nccnc2C2CCCN(CCO)C2)n1 (configuration not stated); -3.54
CCN1C(=O)CC[C@@H]2[C@H]1CCN2S(=O)(=O)Cc1ccc(C)cc1; -0.603
COc1ccc2cc(C3CN(C(=O)CCNC(C)=O)CCO3)ccc2c1 (configuration not stated); 2.84
CC(O)CN1CCN(C(=O)c2ccn(-c3ccccc3Cl)n2)CC1 (configuration not stated); -2.57
Cc1cccc(NC2CCN(C(=O)Nc3cc(F)ccc3F)CC2)n1; 0.351
Cc1c(Br)c(C(F)F)nn1C(C)C(=O)O (configuration not stated); -10.2
Cc1cc(NC(C)Cc2cccs2)n2nccc2n1 (configuration not stated); -14.7
CC(C)NC(=O)c1cc2c(c3ccccc3n2C)n1C(=O)N(C)C; -9.14
CCN1CCC2(CCN(Cc3nccs3)CC2)C1=O; 0.565
CN1C(=O)CC(C(=O)O)C12CCN(c1ccc3cccc(Cl)c3n1)CC2 (configuration not stated); -4.5
CS(=O)(=O)Nc1ccn(Cc2cccc(F)c2)n1; -6.83
Cn1cnnc1C1CCCN(C(=O)NCc2ccccn2)C1 (configuration not stated); 15.7
CCOCc1ccccc1NC(=O)NC1CCN(c2ncccn2)CC1; -6.67
CN(C(=O)CCc1ccncc1)C1CCCN(CCc2ccccc2)C1 (configuration not stated); -7.17
CC(C)(C)CC(=O)NCCn1ccc(-c2ccncc2)n1; -15.2
COCCN(C)CCN1CC2(CCN(C3CCCOC3)CC2)OC1=O (configuration not stated); 3.4
CCNC(=O)[C@@H]1C[C@H](N)CN1C1CCN(c2ccccc2OC)CC1; -3.8
CC(C)N(C)S(=O)(=O)N(C)Cc1ccc2c(c1)OCCO2; 4.58
CS(=O)(=O)c1ccc(CNC(=O)N2CCC(c3ccccc3)CC2)cc1; -2.27
COc1c(CNCc2ccc3c(c2)OCCO3)c(C(C)C)nn1C; -6.06
CN(C)C(=O)N1CCN(c2cc(N3CCCC3CO)ncn2)CC1 (configuration not stated); -4.25
CCn1ccnc1CN1CCC(N(C)Cc2ncc(C)o2)C1 (configuration not stated); 20.1
Cc1cncc(C(=O)N2CCN(c3cnn(C)c(=O)c3)CC2)c1; -6.5
Cc1ccccc1C(C)NC(=O)CN1CCN(Cc2ccc(Br)s2)CC1 (configuration not stated); 18.7
COCCN1Cc2ccccc2C2(CCN(S(C)(=O)=O)CC2)C1; -5.3
CC(=O)N1CCc2cc(Cl)cc(Cl)c2C1; -5.27
COCC1CN(C(=O)CC2Cc3ccccc3C2)Cc2c1cnn2C (configuration not stated); -5.66
O=C(NCc1ccccc1)[C@@H]1Cc2[nH]cnc2CN1CC1CC1; -3.43
COc1ccccc1OC1CN(C(=O)C(c2ccccc2F)N(C)C)C1 (configuration not stated); -0.928
Cc1ccccc1-c1noc(-c2ccc(NCC3COCCO3)nc2)n1 (configuration not stated); -3.64
O=C(Cc1ccccc1F)NCC1CCN(CCc2ccccc2)C1 (configuration not stated); -1.68
c1cc(-c2cnccn2)cc(-c2ccn(CCN3CCCCC3)n2)c1; -7.67
CCC1COCCN1C(=O)NCc1cccc(-c2cnn(C)c2)c1 (configuration not stated); -6.22
COc1ccc(C(=O)C2CCCN(Cc3cnn(C)c3C)C2)c(OC)c1 (configuration not stated); -20.2
Cc1cccc(C(=O)N2CCn3cc(CNC(=O)CC4CC4)nc3C2)n1; -4.69
Cn1cnc(S(=O)(=O)N2C[C@H](OCC3CC3)[C@H]3OCCC[C@H]32)c1; 16.2
CCC(C)C(=O)N(C)Cc1cc(F)ccc1N1CCC(OC)CC1 (configuration not stated); -10.5
O=C(NCCCn1nc2ccccn2c1=O)Nc1ccccc1Cl; 0.153
CC(C)C(=O)NCC(=O)NCC1CCN(c2cnn(C)c(=O)c2)CC1; 23.1
CCc1nc(N2CCN(c3ncccc3C#N)CC2)c2cnn(C)c2n1; 22
CC(=O)N1CCOCC2(CCN(Cc3ccc(C)s3)CC2)C1; -4.66
CCN(CC)c1nc(C)cc(C(=O)Nc2ccc(Br)cc2)n1; 3.54
CS(=O)(=O)CCSCc1cc(F)cc2cccnc12; -16.7
COc1cncc(N2CCN(Cc3cccn3C)CC2)n1; 3.9
CCCN(CC)C(=O)c1nc2c(n1C)CCN(Cc1ccccc1)C2; -4.66
CS(=O)(=O)c1ccc(CNC(=O)NCC2CCOC2)cc1 (configuration not stated); 4.53
CO[C@@H]1CCN(S(=O)(=O)c2cccs2)[C@H]1Cc1cccnc1; -4.13
